Kindly state Implied CS Level for each of the entries shown.
System: patients
Assay: Conscious sedation (CS) level, MAC equivalent of 70% nitrous oxide
Assay type: in vivo, human
Conditions: in vivo
State just the number; it will be interpreted in %.

Inquiry: Provide measured Implied CS Level on patients for FC(F)OC(F)(F)C(F)Cl (stereo not drawn) please.
Reply text: 1.07

Inquiry: Provide measured Implied CS Level on patients for [N-]=[N+]=O [Nitrous Oxide] please.
Reply text: 70.00

Inquiry: Provide measured Implied CS Level on patients for FC(F)OC(Cl)C(F)(F)F (stereo not drawn) please.
Reply text: 0.73

Inquiry: Provide measured Implied CS Level on patients for FC(F)(F)C(Cl)Br (stereo not drawn) please.
Reply text: 0.48

Inquiry: Provide measured Implied CS Level on patients for FC(F)OC(F)C(F)(F)F (stereo not drawn) please.
Reply text: 3.82

Inquiry: Provide measured Implied CS Level on patients for FCOC(C(F)(F)F)C(F)(F)F please.
Reply text: 1.27
